B1: LINE1-full (parent)
chain: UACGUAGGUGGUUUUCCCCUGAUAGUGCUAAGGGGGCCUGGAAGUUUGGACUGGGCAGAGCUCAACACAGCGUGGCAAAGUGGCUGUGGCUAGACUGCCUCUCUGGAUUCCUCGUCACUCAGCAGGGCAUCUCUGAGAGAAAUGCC

# Variants of: B1
# Protocol Summary: self-cleavage, relative activity (ratio to wild type); higher = more cleavage; in vitro, sequencing; the parent is a self-cleaving ribozyme
Overview of recorded self-cleavage for various variants
Measure Name: self-cleavage

INSERT INTO measurements (residue_change, measure_name, reported) VALUES
  ('G32A A121G', 'self-cleavage', 1.53),
  ('A31U U46G', 'self-cleavage', 1.67),
  ('G40A A138G', 'self-cleavage', 1.49),
  ('G48A A136G', 'self-cleavage', 1.62),
  ('U109C U115C', 'self-cleavage', 1.22),
  ('C17U U52G', 'self-cleavage', 1.41),
  ('U26A A64G', 'self-cleavage', 0.2),
  ('U112A A121C', 'self-cleavage', 1.92),
  ('A67U A140G', 'self-cleavage', 0.09),
  ('A2G G27A', 'self-cleavage', 0.19),
  ('A92U C146G', 'self-cleavage', 0.41),
  ('U62C G97A', 'self-cleavage', 0.03),
  ('G34A A77U', 'self-cleavage', 1.33),
  ('A22C U143C', 'self-cleavage', 1.41),
  ('A117G', 'self-cleavage', 1.49),
  ('C113U U143C', 'self-cleavage', 1.05),
  ('U46C A77C', 'self-cleavage', 1.01),
  ('G88A A140G', 'self-cleavage', 0.08),
  ('G83A U91C', 'self-cleavage', 0.24),
  ('U91C C99A', 'self-cleavage', 0.11),
  ('A67G U96C', 'self-cleavage', 0),
  ('U12C A65G', 'self-cleavage', 0.15),
  ('G35U A65U', 'self-cleavage', 0.12),
  ('G70A A129G', 'self-cleavage', 0.09),
  ('C17U A30G', 'self-cleavage', 1.44),
  ('U52A A78U', 'self-cleavage', 2.37),
  ('G53A U109C', 'self-cleavage', 0.27),
  ('A65G C76U', 'self-cleavage', 0.02),
  ('U46C C76U', 'self-cleavage', 2.44),
  ('C61U C76U', 'self-cleavage', 0.04),
  ('G53U U130A', 'self-cleavage', 1.53),
  ('U9A U109C', 'self-cleavage', 1.34),
  ('A92G C98A', 'self-cleavage', 0.08),
  ('U39C U100G', 'self-cleavage', 0.59),
  ('U9C C98G', 'self-cleavage', 0.22),
  ('G21A U100C', 'self-cleavage', 1.72),
  ('U45C A65U', 'self-cleavage', 0.22),
  ('U13C A69U', 'self-cleavage', 0.1),
  ('C51U U62C', 'self-cleavage', 0.05),
  ('U15C A136U', 'self-cleavage', 1.41),
  ('A64U U73A', 'self-cleavage', 0.21),
  ('U39C A64G', 'self-cleavage', 0.24),
  ('A67G G89U', 'self-cleavage', 0.02),
  ('A22G C95U', 'self-cleavage', 0.53),
  ('G53A U100C', 'self-cleavage', 1.09),
  ('A65C U87C', 'self-cleavage', 0.04),
  ('G33C U115C', 'self-cleavage', 2.26),
  ('A2G U119A', 'self-cleavage', 0.96),
  ('A64C C103A', 'self-cleavage', 0.29),
  ('U85C A121G', 'self-cleavage', 0.25),
  ('A65G U81A', 'self-cleavage', 0.06),
  ('G54A U109A', 'self-cleavage', 0.35),
  ('A65U G88U', 'self-cleavage', 0.02),
  ('A69G U96C', 'self-cleavage', 0.16),
  ('A43G G80A', 'self-cleavage', 1.48),
  ('U85G C118U', 'self-cleavage', 0.14),
  ('G53A U87C', 'self-cleavage', 0.18),
  ('U15C A124G', 'self-cleavage', 1.39),
  ('U12G U23A', 'self-cleavage', 0.85),
  ('G82A U102A', 'self-cleavage', 2.12),
  ('A22G A57U', 'self-cleavage', 0.2),
  ('G36U U52C', 'self-cleavage', 1.19),
  ('U20G G127A', 'self-cleavage', 1.37),
  ('A42G U134G', 'self-cleavage', 1.68),
  ('U73A G82U', 'self-cleavage', 1.65),
  ('C3A U85A', 'self-cleavage', 0.13),
  ('G33A A142U', 'self-cleavage', 1.43),
  ('G88A', 'self-cleavage', 0.04),
  ('A57U G126A', 'self-cleavage', 0.07),
  ('U96C A142U', 'self-cleavage', 0.12),
  ('U96C C146U', 'self-cleavage', 0.15),
  ('C90G A136U', 'self-cleavage', 0.04),
  ('G11A U13C', 'self-cleavage', 0.51),
  ('U14C U45C', 'self-cleavage', 1.21),
  ('G27A C111A', 'self-cleavage', 1.16),
  ('U108A U115C', 'self-cleavage', 1.52),
  ('U9A G72A', 'self-cleavage', 0.81),
  ('C110A G139C', 'self-cleavage', 1.08),
  ('U112C A124C', 'self-cleavage', 0.77),
  ('U20G G27A', 'self-cleavage', 0.92),
  ('U39C A136G', 'self-cleavage', 1.43),
  ('U14C A31U', 'self-cleavage', 1.11),
  ('A50G U52C', 'self-cleavage', 1.08),
  ('U108C C146U', 'self-cleavage', 0.63),
  ('U12G U62C', 'self-cleavage', 0.14),
  ('U47A A69G', 'self-cleavage', 0.52),
  ('G58U A142G', 'self-cleavage', 0.03),
  ('C84U', 'self-cleavage', 0.14),
  ('A78U U132C', 'self-cleavage', 1.92);

This collection of values is drawn from the RNAGym collection of RNA variant scans (doi:10.7554/elife.90254).
